Taken from patent US20240101716A1.

- Measured target: recombinant human SIRPα variant 1 protein (human) (UniProt P78324)
- Sequence (P78324 31-370, change not shown): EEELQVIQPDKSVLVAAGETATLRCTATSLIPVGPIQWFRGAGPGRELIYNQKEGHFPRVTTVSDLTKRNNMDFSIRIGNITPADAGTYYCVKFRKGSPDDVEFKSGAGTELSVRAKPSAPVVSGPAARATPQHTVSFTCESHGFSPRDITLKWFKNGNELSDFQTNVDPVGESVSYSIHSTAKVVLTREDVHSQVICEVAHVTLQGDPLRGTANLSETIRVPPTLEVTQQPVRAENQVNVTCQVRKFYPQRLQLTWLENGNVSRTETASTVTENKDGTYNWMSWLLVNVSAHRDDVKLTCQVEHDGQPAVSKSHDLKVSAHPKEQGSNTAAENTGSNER
- Test: SPR Biacore 8K, antibody captured, antigen analyte
Parameter: koff (s⁻¹)
Your answer is read as s⁻¹, so omit the unit and give the number.

• HSP210-03-hz51 (antibody, V domains shown) VH: QVQLVQSGAEVKKPGSSVKVSCKASGYTFTSNYIHWVRQAPGQGLEWMGWIYPGDADTNYNQKFNGRVTLTADKSTSTAYMELSSLRSEDTAVYYCAINYGGIWFAYWGQGTLVTVSS VL: DIQMTQSPSSLSASVGDRVTITCQASQDIGNKLIWYQQKPGKAPKLLIYYVTNLPGGVPSRFSGSGSGTDFTLTISSLQPEDFATYYCLQYKQNPLTFGQGTKLEIK = 0.000804
• 300A6A6 (antibody, V domains shown) VH: QVQLQQSGTELVKPGSSVKISCKASGYTFTSNYIHWIRQQPGNGLEWIGWIYPGDGDTNYNQKFNGKATLTADKSSSTAYMQLSSLTSEDYAVYFCAINYGGIWFAYWGQGTLVTVSS VL: DIQMTQSPSSMSASLGDRVTITCQASQDIGNKLIWFQQKPGKSPRLMIHYVTNLPGGVPLRFSGSRSGSDYSLTISSLESEDMADYYCLQYKQNPLTFGSGTKLEIK = 0.000148

Attention now turns to another entry.
Item under review: HSP210-02-hz52 (antibody, V domains shown) VH: QVQLVQSGAEVKKPGASVKVSCKASGFNFEDTYMHWVRQAPGQGLEWMGRIDPADADTKYNPKFQDRVTITVDTSTNTAYMELSSLRSEDTAVYYCVRGNYVNWGQGTTVTVSS VL: EIVLTQSPGTLSLSPGERATLSCRASSSVSSSYLYWYQQKPGQAPRLLIYSTSNLASGIPDRFSGSGSGTDYTLTISRLEPEDAAVYFCHQWYSYPRTFGGGTKVEIK . Reported koff?
0.000298
